Below: a set of entries, each annotated with reported pKi.
# target_of_assay: BRD4 (BDII_E352-M457) (Homo sapiens, UniProt O60885)
# method_description: TR-FRET bromodomain binding assay, BRD4 second bromodomain
pKi: −log10 of the molar value.
reported_metric: pKi

[
  {
    "sample_smiles": "Cc1[nH]c(-c2cc(S(C)(=O)=O)ccc2F)c2c1C(=O)NCC2",
    "cmp": "<",
    "endpoint_value": 5.35
  },
  {
    "sample_smiles": "Cc1[nH]c(-c2cc(N)ccc2Oc2ccc(F)cc2F)c2cn[nH]c(=O)c12",
    "cmp": "=",
    "endpoint_value": 7.47
  },
  {
    "sample_smiles": "Cc1[nH]c(-c2cc(NS(C)(=O)=O)ccc2Oc2ccc(F)cc2F)c2cn[nH]c(=O)c12",
    "cmp": "=",
    "endpoint_value": 7.61
  },
  {
    "sample_smiles": "Cc1[nH]c(-c2ccccc2Oc2ccccc2)c2cc(-c3nc(-c4ccc(N(C)C)cc4)no3)[nH]c(=O)c12",
    "cmp": "<",
    "endpoint_value": 5.39
  }
]

Where do these numbers come from? They come from patent US9050346B2.
